# System Tested: TYK2 (Homo sapiens, UniProt P29597)
# Sequence (P29597 whole entry): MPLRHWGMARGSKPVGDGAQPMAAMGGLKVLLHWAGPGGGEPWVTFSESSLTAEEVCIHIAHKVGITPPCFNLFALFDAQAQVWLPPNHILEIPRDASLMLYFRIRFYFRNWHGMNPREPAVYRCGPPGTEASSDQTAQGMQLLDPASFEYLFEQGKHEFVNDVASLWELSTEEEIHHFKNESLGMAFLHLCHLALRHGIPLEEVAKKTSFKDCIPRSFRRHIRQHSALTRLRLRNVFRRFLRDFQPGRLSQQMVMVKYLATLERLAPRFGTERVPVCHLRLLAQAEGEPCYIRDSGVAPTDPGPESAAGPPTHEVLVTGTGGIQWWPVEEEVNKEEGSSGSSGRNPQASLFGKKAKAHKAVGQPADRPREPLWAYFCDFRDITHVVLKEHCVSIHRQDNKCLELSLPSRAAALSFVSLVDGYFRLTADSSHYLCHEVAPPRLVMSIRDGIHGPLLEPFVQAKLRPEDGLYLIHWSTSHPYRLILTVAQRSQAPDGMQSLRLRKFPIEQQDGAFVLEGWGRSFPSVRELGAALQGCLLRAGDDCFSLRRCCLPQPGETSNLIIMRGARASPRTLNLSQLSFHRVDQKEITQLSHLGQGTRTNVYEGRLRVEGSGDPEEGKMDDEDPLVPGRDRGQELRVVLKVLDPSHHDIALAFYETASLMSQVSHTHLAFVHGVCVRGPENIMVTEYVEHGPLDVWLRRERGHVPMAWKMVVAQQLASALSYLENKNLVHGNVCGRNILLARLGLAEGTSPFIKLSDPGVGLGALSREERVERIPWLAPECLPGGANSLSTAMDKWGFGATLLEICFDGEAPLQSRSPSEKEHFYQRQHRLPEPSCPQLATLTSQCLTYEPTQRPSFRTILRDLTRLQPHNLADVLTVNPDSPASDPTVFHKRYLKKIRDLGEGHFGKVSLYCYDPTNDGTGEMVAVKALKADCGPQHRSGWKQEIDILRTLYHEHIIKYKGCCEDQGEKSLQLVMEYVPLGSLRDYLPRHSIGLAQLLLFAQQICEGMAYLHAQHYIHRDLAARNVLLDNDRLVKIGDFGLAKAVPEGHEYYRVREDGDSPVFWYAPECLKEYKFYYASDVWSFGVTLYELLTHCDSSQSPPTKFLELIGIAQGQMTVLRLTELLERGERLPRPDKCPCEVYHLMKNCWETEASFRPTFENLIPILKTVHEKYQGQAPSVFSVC
# Test Summary: TYK2 degradation MSD assay in EBV-B cells
# Assay type: cell-based
# Design: endogenous in cells; host or cells: EBV-B cells
# Experimental Setup: 4 to 24 hours incubation, read-out: TYK2 MSD DC50 rating in EBV-B
Reported DC50 is given for each of the following compounds.

# annotated cases, reported DC50 shown
Compound	Value Observed
CNc1cc(Nc2cccn(-c3ccc(C(=O)N4CC5(CCN(c6cccc7c6n(C)c(=O)n7C6CCC(=O)NC6=O)CC5)C4)cn3)c2=O)nn2c(C(=O)N[C@@H]3C[C@@H]3F)cnc12 (stereo partly shown)	< 1 nM
CNc1cc(Nc2cccc(C3CCN(CCc4cccc5c4n(C)c(=O)n5C4CCC(=O)NC4=O)CC3)c2)nn2c(C(=O)N[C@@H]3C[C@@H]3F)cnc12 (stereo partly shown)	> 100 nM
CNc1cc(Nc2cccc(-c3ccc(CN4CCN(c5ccc(-c6ccc7c(c6)n(C)c(=O)n7C6CCC(=O)NC6=O)cc5)CC4)cn3)c2Cl)nn2c(C(=O)N[C@@H]3C[C@@H]3F)cnc12 (mixture of isomers)	> 100 nM

Sample CNC(=O)c1cnc(Nc2cc(C(=O)NCCCCCCCCc3ccc4c(c3)n(C)c(=O)n4C3CCC(=O)NC3=O)ccn2)cc1Nc1cccc(-c2ncc(F)cn2)c1OC (stereo not shown) ; DC50 observed: 1 to 10 nM

Sample CNc1cc(Nc2cccc(N3CCC(CN4CCN(c5ccc(-c6ccc7c(c6)n(C)c(=O)n7C6CCC(=O)NC6=O)cc5)CC4)CC3)c2OC)nn2c(C(=O)N[C@@H]3C[C@@H]3F)cnc12 (stereo partly shown) ; DC50 observed: > 100 nM

Sample CNc1cc(Nc2cccc(CN3CC4(CCN(c5cccc6c5n(C)c(=O)n6C5CCC(=O)NC5=O)CC4)C3)c2)nn2c(C(=O)NC3CC3)cnc12 (stereo not shown) ; DC50 observed: > 100 nM

Sample Cn1c(=O)n(C2CCC(=O)NC2=O)c2ccc(CCOCCOCCNc3cc(Nc4cccn(-c5ccccn5)c4=O)nn4c(C(=O)N[C@@H]5C[C@@H]5F)cnc34)cc21 (stereo partly shown) ; DC50 observed: > 100 nM

Sample CNc1cc(Nc2cccn(-c3ccc(C(=O)N4CCC(CN5CCCC(c6cccc7c6n(C)c(=O)n7C6CCC(=O)NC6=O)C5)CC4)cn3)c2=O)nn2c(C(=O)N[C@@H]3C[C@@H]3F)cnc12 (stereo partly shown) ; DC50 observed: > 100 nM

Sample CNc1cc(Nc2cccn(-c3ccc(C(=O)NCCCCCCCc4ccc5c(c4)n(C)c(=O)n5C4CCC(=O)NC4=O)cn3)c2=O)nn2c(C(=O)N[C@@H]3C[C@@H]3F)cnc12 (stereo partly shown) ; DC50 observed: > 100 nM

Sample CNc1cc(Nc2cccn(-c3ccc(C(=O)N4CCC(OC5CC(c6cccc7c6n(C)c(=O)n7C6CCC(=O)NC6=O)C5)CC4)cn3)c2=O)nn2c(C(=O)N[C@@H]3C[C@@H]3F)cnc12 (stereo partly shown) ; DC50 observed: > 100 nM
